Catalogue of fluorescence inhibition values
# test.details: hypoxia reporter signal reduction in M. tuberculosis – fluorescence, absorbance growth readout, primary screen (AID 1159583)
# experimental.setup: M. tuberculosis hypoxia-regulated fluorescent reporter, stronger effect = higher value, concentration not given here
Out of some 300,000 compounds screened, about 310 (0.1%) were called active. Many of the other results were omitted from the sample, so actives are more common in it than they were.

{"columns": ["compound", "fluorescence inhibition [%]"],
 "data": [
  ["CC(=NNC(=S)NC1CCCCC1)c1ccc(OC(F)F)cc1OC(F)F", 2.47],
  ["COc1ccc(C=NNc2nc3ccccc3[nH]2)c(OC)c1OC", 1.22],
  ["C=CCNC(=S)N=c1sccn1C", 6.54],
  ["COC(=O)C1=C(c2ccc(OC(F)(F)F)cc2)CC2CCC1N2C(=O)NCCOc1ccc(OC)cc1 (stereo unspecified)", 0.962],
  ["COc1ccc2c(Cl)c(C(=O)NN=Cc3c(C)[nH]c4ccccc34)sc2c1", 12.9],
  ["O=C1/C(=C\\c2cccnc2)CN(Cc2ccccc2)C/C1=C\\c1cccnc1", 53.7],
  ["CCN1C(=O)C2C(c3ccc(-c4cccc(Cl)c4)cc3)N[C@@](C)(C(=O)OC)C2C1=O (stereo partly specified)", 8.93],
  ["Cc1ccc(C(=O)ON=Cc2ccc3c(c2)OCO3)cc1", 2.14],
  ["CCn1c(SCC(=O)NN=C(C)c2ccco2)nnc1-c1ccccc1", -6.87],
  ["CC(Oc1ccccc1[N+](=O)[O-])C(=O)NN=Cc1ccoc1 (stereo unspecified)", -0.473],
  ["Cc1ccccc1C1=N/C(=C/c2cccnc2)C(=O)O1", -4.88]
]}

---

Catalogue of growth inhibition values
# test.details: hypoxia reporter signal reduction in M. tuberculosis – fluorescence, absorbance growth readout, primary screen (AID 1159583)
# experimental.setup: M. tuberculosis hypoxia-regulated fluorescent reporter, stronger effect = higher value, concentration not given here; measured here: M. tuberculosis growth (absorbance)
The whole screen tested about 300,000 compounds, of which about 310 (0.1%) were called active. The sample holds actives, similar compounds and a random draw of the others, so the mix is not that of the screen.
measured.property: growth inhibition (%)

{"columns": ["compound", "measured.property", "value.observed"],
 "data": [
  ["C[C@@]12CCC=CC1C(c1ccc(C(F)(F)F)cc1)N(Cc1ccccc1)C2=O (stereo partly specified)", "growth inhibition", 10.9],
  ["CCN1CC2C3C(=O)N(Cc4ccccc4)C(=O)C3[C@](CC)(C1=O)N2C(=O)c1ccc(Br)cc1 (stereo partly specified)", "growth inhibition", 7.16],
  ["COc1cccc(C2Oc3ccc(Br)cc3C(=O)C2OC(=O)NC2CCCC2)c1 (stereo unspecified)", "growth inhibition", 0.422],
  ["COc1ccc(C=NNC(=O)c2ccccc2OC)cc1COc1ccccc1[N+](=O)[O-]", "growth inhibition", -1.45],
  ["CCCCN1C(N)=NCC1CCCCN (stereo unspecified)", "growth inhibition", 4.01],
  ["Cc1c(C=NNC(=O)c2ccc(F)cc2)cnn1C", "growth inhibition", 1.5],
  ["COc1ccc(C=NN=C(N)c2nonc2N)cc1", "growth inhibition", 6.79],
  ["CCOc1c2ccc(C(=O)NC(C)C3CCCCC3)cc2nn1CCOC (stereo unspecified)", "growth inhibition", 7.24],
  ["CCC(=NNC(=O)CSCc1ccccc1Br)c1ccc2c(c1)OCCO2", "growth inhibition", 1.89],
  ["N#CC(=NNc1cccc(F)c1)C(=O)C1CC1", "growth inhibition", -0.741],
  ["Cc1ccc(C2C3C(=O)N(C)C(=O)C3[C@]3(C)C(=O)N(CC4CC4)CC(=O)N23)o1 (stereo partly specified)", "growth inhibition", -2.47]
]}
